System: human colon carcinoma HT29
PROTOCOL DETAILS: Proliferation assay (IC50) under aerobic and hypoxic conditions, HT29
Type: cell-based
CONDITION SET: Homo sapiens, HT-29, hypoxic (anaerobic chamber, <0.001% O2), 4 h drug exposure, then 6 days growth, sulforhodamine B, read-out: IC50 (μM) hypoxic
PROPERTY LABEL: IC50 (µM)

Take a look at these entries with their results.
MOLECULE	ENDPOINT UNIT	IC50
[O-][n+]1nc(CCCN2CCCCC2)[n+]([O-])c2cc3c(cc21)CCC3	µM	0.37
CCc1n[n+]([O-])c2cc3c(cc2[n+]1[O-])CC(CCN1CCOCC1)C3 (stereo not drawn)	µM	3.6
COC1CCCN(CCNc2n[n+]([O-])c3cc4c(cc3[n+]2[O-])CCC4)C1 (stereo not drawn)	µM	93

A: CN(C)CCNc1n[n+]([O-])c2cc3c(cc2[n+]1[O-])CCO3
B: [O-][n+]1nc(NCCCN2CCOCC2)[n+]([O-])c2cc3c(cc21)CCCC3
C: COC1CN(CCCc2n[n+]([O-])c3cc4c(cc3[n+]2[O-])CCC4)C1
D: [O-][n+]1nc(NCCN2CCOCC2)[n+]([O-])c2cc3c(cc21)CCC3
Order the 4 molecules from highest to lowest IC50. Reply: labels, ordered per the request. D, B, A, C

I: COC1CN(CCCNc2n[n+]([O-])c3cc4c(cc3[n+]2[O-])CCC4)C1
II: CN(C)CCNc1n[n+]([O-])c2cc3c(cc2[n+]1[O-])CCCCC3
III: [O-][n+]1nc(NCCCN2CCOCC2)[n+]([O-])c2cc3c(cc21)OCC3
Write the entries in order, lowest recorded IC50 first. Give me the labels in the order the question wants. I, II, III

I: CN(C)CCNc1n[n+]([O-])c2c3c(ccc2[n+]1[O-])CCC3
II: CN(C)CCNc1n[n+]([O-])c2cc3c(cc2[n+]1[O-])CCCO3
III: CCc1n[n+]([O-])c2cc3c(cc2[n+]1[O-])CC(CN1CCOCC1)C3 (stereo not drawn)
Please order the records by their reported IC50, lowest number first. Please respond with the labels ordered as the question requires. II, I, III

----------
Tested on: human colon carcinoma HT29
PROTOCOL DETAILS: Proliferation assay (IC50) under aerobic and hypoxic conditions, HT29
Format: cell-based
CONDITION SET: Homo sapiens, HT-29, hypoxic (anaerobic chamber, <0.001% O2), 4 h drug exposure, then 6 days growth, sulforhodamine B, read-out: IC50 (μM) hypoxic
PROPERTY LABEL: IC50 (µM)

Look over these answered cases.
COMPOUND	IC50, µM
[O-][n+]1nc(NCCN2CCCOCC2)[n+]([O-])c2cc3c(cc21)CCC3	7.1
CC1Cc2cc3c(cc2C1)[n+]([O-])c(NCCCN1CCOCC1)n[n+]3[O-] (stereo not drawn)	19

a: CC1Cc2cc3c(cc2C1)[n+]([O-])c(CCCO)n[n+]3[O-] (stereo not drawn)
b: COCCN(C)CCCNc1n[n+]([O-])c2cc3c(cc2[n+]1[O-])CCC3
Just curious, which one has the larger IC50 reading, a or b ? Answer by stating the label of the chosen item. a

----------
Where a name gives a salt, the structure may show the parent alone.
Some compounds, each annotated with its measured melting point.

I would be grateful if you could share the reported melting point for [O-][n+]1nc(NCCN2CCCCC2)[n+]([O-])c2cc3c(cc21)CCC3 [Compound 37] . 165 to 168 °C

I am curious: what melting point value has been reported for [O-][n+]1nc(NCCCN2CCOCC2)nc2cc3c(cc21)CCC3 [Compound 60] ? 139 to 141 °C

Dear colleague, I am looking for the recorded melting point of the following compound: CC1CCCC(C)N1CCNc1n[n+]([O-])c2cc3c(cc2[n+]1[O-])CCC3 (stereo not drawn) [Compound 39] 170 to 172 °C

State the recorded melting point for this entry: CC1Cc2cc3c(cc2C1)[n+]([O-])c(NCCCN1CCOCC1)n[n+]3[O-] (stereo not drawn) [Compound 99] 161 to 163 °C

Return reported melting point; argument: CC(C)(C)[Si](C)(C)OCC1Cc2cc3nc(N)n[n+]([O-])c3cc2C1 (stereo not drawn) 169 to 171 °C

I would be grateful if you could share the reported melting point for COCCCN(C)CCNc1n[n+]([O-])c2cc3c(cc2[n+]1[O-])CCC3 [Compound 33] . 129 to 131 °C

Requested field: melting point. Item: CCN1Cc2cc3c(cc2C1)[n+]([O-])c(N)n[n+]3[O-] (as salt: hydrochloride) [Compound 250] 230 °C

Looking for the measured melting point of CCN(CC)CCNc1nc2cc3c(cc2[n+]([O-])n1)CCC3 [Compound 26] , can you help? 109 to 112 °C

Which melting point is listed for CCc1nc2cc3c(cc2[n+]([O-])n1)CC(CO)C3 (stereo not drawn) [Compound 142] ? 122 to 123 °C

----------
Each entry below carries its recorded HCR.
Test system: human colon carcinoma HT29
PROTOCOL DETAILS: Proliferation assay (IC50) under aerobic and hypoxic conditions, HT29
Format: cell-based
CONDITION SET: hypoxic cytotoxicity ratio = IC50 aerobic/IC50 hypoxic
I only need the number, thanks.

Worked cases, answers included:
COMPOUND	HCR
CCc1n[n+]([O-])c2cc3c(cc2[n+]1[O-])CCC3	6.0
CCCN(CCC)CCNc1nc2ccc3c(c2[n+]([O-])n1)CCC3	7
[O-][n+]1nc(NCCN2CCCOCC2)[n+]([O-])c2cc3c(cc21)CCC3	58
COC1CCN(CCNc2n[n+]([O-])c3cc4c(cc3[n+]2[O-])CCC4)CC1	56
[O-][n+]1nc(CCCN2CCCCC2)[n+]([O-])c2cc3c(cc21)CCC3	598

Hello, I am looking for reported HCR with human colon carcinoma HT29 for CC1Cc2cc3c(cc2C1)[n+]([O-])c(NCCN(C)C)n[n+]3[O-] (stereo not drawn) . Could you help? 54

Query for human colon carcinoma HT29: what HCR does the record show for CCc1n[n+]([O-])c2cc3c(cc2[n+]1[O-])CC(CCO)C3 (stereo not drawn) ? 102

// fetch human colon carcinoma HT29 HCR for [O-][n+]1nc(NCCN2CCCCCC2)[n+]([O-])c2cc3c(cc21)CCC3 52

Form field: HCR recorded for [O-][n+]1nc(NCCO)[n+]([O-])c2cc3c(cc21)CCC3 with human colon carcinoma HT29 (enter value) 32

Write down the reported HCR of COC1CCCN(CCNc2n[n+]([O-])c3cc4c(cc3[n+]2[O-])CCC4)C1 (stereo not drawn) , test system: human colon carcinoma HT29. 19

----------
Measured HCR, listed per entry for reference.
Test system: human colon carcinoma HT29
PROTOCOL DETAILS: Proliferation assay (IC50) under aerobic and hypoxic conditions, HT29
Assay type: cell-based
CONDITION SET: hypoxic cytotoxicity ratio = IC50 aerobic/IC50 hypoxic
Lab note: jot down the number only; don't add units.

COMPOUND	TEST SYSTEM	PROPERTY LABEL	REPORTED VALUE
CN(C)CCNc1n[n+]([O-])c2cc3c(cc2[n+]1[O-])CCCCC3	human colon carcinoma HT29	HCR	54

Please provide the recorded HCR for CCCN(CCC)CCNc1n[n+]([O-])c2cc3c(cc2[n+]1[O-])CCC3 , tested on human colon carcinoma HT29. 77

For human colon carcinoma HT29, provide HCR of CN(C)CCNc1n[n+]([O-])c2cc3c(cc2[n+]1[O-])OCC3 please. 46

API: value(readout=HCR, system=human colon carcinoma HT29) for record Nc1n[n+]([O-])c2cc3c(cc2[n+]1[O-])OCC3 4

Give recorded HCR with human colon carcinoma HT29 for the following compound: [O-][n+]1nc(NCCN2CCCCC2)[n+]([O-])c2ccc3c(c21)CCC3 53

Query HCR on human colon carcinoma HT29 for CCc1n[n+]([O-])c2cc3c(cc2[n+]1[O-])CN(C)CC3 2

----------
PROPERTY LABEL: melting point

COMPOUND	melting point
CCCN(CCC)CCNc1nc2ccc3c(c2[n+]([O-])n1)CCC3 [Compound 11]	133 to 135 °C
CC1Cc2cc3nc(NCCCN4CCOCC4)n[n+]([O-])c3cc2C1 (stereo not shown)	138 to 140 °C

# query: melting point of entry [O-][n+]1cn[n+]([O-])c2cc3c(cc21)CCC3 179 to 181 °C

Which melting point value belongs to CCNc1nc2cc3c(cc2[n+]([O-])n1)CC(CO)C3 (stereo not shown) ? 150 °C

I have this compound here, CN(C)CCNc1n[n+]([O-])c2cc3c(cc2[n+]1[O-])CCO3 , and I need its recorded melting point. 149 to 151 °C

Look up melting point for this compound: CN(C)CCNc1n[n+]([O-])c2cc3c(cc2[n+]1[O-])OCO3 175 to 179 °C

Item under review: COC1CCN(CCCNc2n[n+]([O-])c3cc4c(cc3[n+]2[O-])CCC4)CC1 . Reported melting point? 128 to 130 °C

Please report the recorded melting point for CN(C)CCNc1nc2ccc3c(c2[n+]([O-])n1)CCCC3 . 151 to 153 °C

Origin of values: patent US7989451B2
